System: EKVX NSCLC
Experiment Summary: NCI tumour cell line growth inhibition, 48 h
Consider the following molecules and their measured TGI readings.
Answer format: numeric, µM implied, no suffix.

CCC[CH2][Sn]1([CH2]CCC)[O]N=Cc2ccccc2[O]1 2.39

Kindly consider the entry below.
Request: Would you kindly share the measured TGI for CCN(CC)Cc1cc(Nc2c3ccc(Cl)cc3nc3c(C)cccc23)ccc1O ?
Response: 3.98

---

System: HOP-62 NSCLC
Experiment Summary: NCI tumour cell line growth inhibition, 48 h; in the data active = GI50 below about 0.43 µM; inactive = the rest
Select the matching outcome among 1 (active), 0 (inactive)

As a guide, the following entries are already answered.
Compound	Tested Target	Cat
COC(=O)[C@@H](C)C[C@H](Cc1ccccc1)NC(=O)c1csc([C@@H](C[C@H](C(C)C)N(C)C(=O)[C@@H](NC(=O)CN(C)C)C2CC2)OC(C)=O)n1	HOP-62 NSCLC	1
Nc1ccc(Sc2ccc3c4c2cccc4c(=O)n2c4ccccc4nc32)cc1	HOP-62 NSCLC	0
CCC[CH2][Sn]1([CH2]CCC)[O]N=Cc2ccccc2[O]1	HOP-62 NSCLC	0
Cc1c(-c2ccnc(N)n2)c2c(n1-c1ccccc1)C(=O)c1ccccc1C2=O	HOP-62 NSCLC	0

Request: // outcome(item) with item = COc1cc2cc(Oc3ccc(NC(=O)Nc4cc(C(F)(F)F)cc(C(F)(F)F)c4)cc3)c(C)nc2cc1OCCN1CCCCC1
Response: 0

Sourced from PubChem BioAssay (NCI)
